# SUBJECT_OF_TEST: Growth factor receptor-bound protein 2 (Homo sapiens) (UniProt P62993)
# PROTOCOL: Binding affinity to Grb2-SH2 domain (53 to 163 residues) (unknown origin) expressed in Escherichia coli assessed as change in enthalpy by ITC analysis
Square brackets hold non-standard residues; d marks the D form. Peptide text beside a SMILES is read from it. * marks the point of attachment. pY = N[C@@H](Cc1ccc(OP(=O)(O)O)cc1)C(=O)O; NHPhenethyl = c1ccc(CCN*)cc1; Ac6c = NC1(C(=O)O)CCCCC1
ENDPOINT_NAME: deltaH (kcal/mol)

MOLECULE: CC(=O)N[C@@H](Cc1ccc(OP(=O)(O)O)cc1)C(=O)NC1(C(=O)N[C@@H](CC(N)=O)C(=O)NCCCc2cn(C)c3ccccc23)CCCCC1
UNIT_ABBREV: kcal/mol
deltaH: -10.2
--
MOLECULE: CC(=O)N[C@@H](Cc1ccc(OP(=O)(O)O)cc1)C(=O)NC1(C(=O)N[C@@H](CC(N)=O)C(=O)NCCc2ccccc2)CCCCC1 (Ac-[pY]-[Ac6c]-Asn-NHPhenethyl)
UNIT_ABBREV: kcal/mol
deltaH: -7.7
--
MOLECULE: CC(=O)N[C@@H](Cc1ccc(OP(=O)(O)O)cc1)C(=O)NC1(C(=O)N[C@@H](CC(N)=O)C(=O)NCCCCc2ccccc2)CCCCC1
UNIT_ABBREV: kcal/mol
deltaH: -7.7
--
MOLECULE: CC(=O)N[C@@H](Cc1ccc(OP(=O)(O)O)cc1)C(=O)NC1(C(=O)N[C@@H](CC(N)=O)C(=O)NCCCc2ccc(C)cc2)CCCCC1
UNIT_ABBREV: kcal/mol
deltaH: -8.6
--
MOLECULE: COc1ccc(CCCNC(=O)[C@H](CC(N)=O)NC(=O)C2(NC(=O)[C@H](Cc3ccc(OP(=O)(O)O)cc3)NC(C)=O)CCCCC2)cc1
UNIT_ABBREV: kcal/mol
deltaH: -9.1
--
MOLECULE: CC(=O)N[C@@H](Cc1ccc(OP(=O)(O)O)cc1)C(=O)NC1(C(=O)N[C@@H](CC(N)=O)C(=O)NCCCc2ccc(Cl)cc2)CCCCC1
UNIT_ABBREV: kcal/mol
deltaH: -9.1
--
MOLECULE: CC(=O)N[C@@H](Cc1ccc(OP(=O)(O)O)cc1)C(=O)NC1(C(=O)N[C@@H](CC(N)=O)C(=O)NCCCCC(C)C)CCCCC1
UNIT_ABBREV: kcal/mol
deltaH: -7.8
--
MOLECULE: CC(=O)N[C@@H](Cc1ccc(OP(=O)(O)O)cc1)C(=O)NC1(C(=O)N[C@@H](CC(N)=O)C(=O)NCCCc2ccccc2)CCCCC1
UNIT_ABBREV: kcal/mol
deltaH: -8.8
--
MOLECULE: CC(=O)N[C@@H](Cc1ccc(OP(=O)(O)O)cc1)C(=O)NC1(C(=O)N[C@@H](CC(N)=O)C(=O)NCCCn2ccc3ccccc32)CCCCC1
UNIT_ABBREV: kcal/mol
deltaH: -9.1
--
MOLECULE: CC(=O)N[C@@H](Cc1ccc(OP(=O)(O)O)cc1)C(=O)NC1(C(=O)N[C@@H](CC(N)=O)C(N)=O)CCCCC1 (Ac-[pY]-[Ac6c]-Asn-NH2)
UNIT_ABBREV: kcal/mol
deltaH: -8.5

(a) CC(=O)N[C@@H](Cc1ccc(OP(=O)(O)O)cc1)C(=O)NC1(C(=O)N[C@@H](CC(N)=O)C(=O)NCCCc2cccc3ccccc23)CCCCC1
(b) CC(=O)N[C@@H](Cc1ccc(OP(=O)(O)O)cc1)C(=O)NC1(C(=O)N[C@@H](CC(N)=O)C(=O)NCc2cn(C)c3ccccc23)CCCCC1
[in] Larger number for deltaH: a , or b ? Write down the label of the entry you select.
[out] b
(b: -6.7 kcal/mol, a: -9.6 kcal/mol)
